Reference source for all entries: patent US6395762B1

Target: human β3-AR (Homo sapiens, UniProt P13945)
Construct: Full-length β3-AR clones (402 amino acids) containing the last 6 amino acids of hβ3-AR; expressed in transfected cells; host or cells: CHO (Chinese hamster ovary) cells
Sequence (P13945 whole entry): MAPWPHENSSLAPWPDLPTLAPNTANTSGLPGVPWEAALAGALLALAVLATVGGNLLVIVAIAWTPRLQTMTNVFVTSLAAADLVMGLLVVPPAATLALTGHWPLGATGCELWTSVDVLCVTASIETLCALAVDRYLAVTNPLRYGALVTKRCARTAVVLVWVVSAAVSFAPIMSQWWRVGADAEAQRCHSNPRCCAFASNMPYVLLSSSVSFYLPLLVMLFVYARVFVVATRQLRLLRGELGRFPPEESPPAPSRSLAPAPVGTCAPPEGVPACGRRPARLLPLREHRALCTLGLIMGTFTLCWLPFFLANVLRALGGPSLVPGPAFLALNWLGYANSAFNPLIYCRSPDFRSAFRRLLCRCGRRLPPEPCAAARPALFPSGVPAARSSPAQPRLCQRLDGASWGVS
Assay: cAMP accumulation (SPA) in CHO cells transfected with human β3-AR
Assay type: cell-based
Settings: CHO cells transfected with human β3-AR; cAMP by SPA; 30 min at 37° C.; 10^−9 M to 10^−5 M; read-out: EC50(β3)
pEC50: −log10 of the molar value.
Please use Condition met whenever pEC50 is not below 7, and Condition not met whenever it is.

- molecule: "CN(C)c1ccc(C2(CNC3=NS(=O)(=O)N=C3Nc3ccc(CC(C)(C)NC[C@H](O)COc4ccc(OCc5ccccc5)cc4)cc3)CCCC2)cc1 [7 (step E)]"
  target-under-test: "human β3-AR (Homo sapiens, UniProt P13945)"
  assigned-category: "Condition not met"
- molecule: "CN(C)c1ccc(C2(CNC3=NS(=O)(=O)N=C3Nc3ccc(CC(C)(C)NCC(O)c4ccc(O)c(NS(C)(=O)=O)c4)cc3)CCCC2)cc1 (stereo not shown)"
  target-under-test: "human β3-AR (Homo sapiens, UniProt P13945)"
  assigned-category: "Condition met"
- molecule: "CCCCCCNC(=O)Nc1ccc(C2(CNC3=NS(=O)(=O)N=C3Nc3ccc(CC(C)(C)NC[C@@H](O)COc4ccc(OCc5ccccc5)cc4)cc3)CCCC2)cc1 [8 (step H)]"
  target-under-test: "human β3-AR (Homo sapiens, UniProt P13945)"
  assigned-category: "Condition met"
- molecule: "CCCCCCCCNC1=NS(=O)(=O)N=C1Nc1ccc(CC(C)(C)NC[C@H](O)COc2ccc(OCc3ccccc3)cc2)cc1 [4 (step F)]"
  target-under-test: "human β3-AR (Homo sapiens, UniProt P13945)"
  assigned-category: "Condition not met"
- molecule: "CN(C)c1ccc(C2(CNC3=NS(=O)(=O)N=C3Nc3ccc(CC(C)(C)NC[C@H](O)COc4ccc(O)cc4)cc3)CCCC2)cc1"
  target-under-test: "human β3-AR (Homo sapiens, UniProt P13945)"
  assigned-category: "Condition met"

---

Target: human β3-AR (Homo sapiens)
Construct: Full-length β3-AR clones (402 amino acids) containing the last 6 amino acids of hβ3-AR; expressed in transfected cells; host or cells: CHO (Chinese hamster ovary) cells
Assay: cAMP accumulation (SPA) in CHO cells transfected with human β3-AR
Assay type: cell-based
Conditions: maximal response of compound relative to maximal response of isoproterenol at 10^−5 M; CHO cells transfected with human β3-AR

- molecule: "CC(Cc1ccc(NC2=NS(=O)(=O)N=C2NCC2(c3ccccc3)CCCC2)cc1)NC[C@H](O)COc1ccc(OCc2ccccc2)cc1 (stereo partly shown)"
  IA(β3): 0.93
- molecule: "CCCCCCCCNC1=NS(=O)(=O)N=C1Nc1ccc(CC(C)NCC(O)c2cccc(Cl)c2)cc1 (stereo not shown)"
  IA(β3): 0.86
- molecule: "CCCCCCCCNc1c(Nc2ccc(CC(C)NC[C@H](O)COc3ccccc3)cc2)c(=O)c1=O (stereo partly shown)"
  IA(β3): 0.41
- molecule: "CCCCCCNC(=O)Nc1ccc(C2(CNC3=NS(=O)(=O)N=C3Nc3ccc(CC(C)(C)NC[C@H](O)COc4ccc(O)cc4)cc3)CCCC2)cc1"
  IA(β3): 0.91
- molecule: "CCCCCCCCNC1=NS(=O)(=O)N=C1Nc1ccc(CC(C)NC[C@H](O)COc2ccccc2)cc1 (stereo partly shown)"
  IA(β3): 0.39
- molecule: "CC(C)(Cc1ccc(NC2=NS(=O)(=O)N=C2NCC(c2ccccc2)c2ccccc2)cc1)NC[C@H](O)COc1ccc(OCc2ccccc2)cc1"
  IA(β3): 0.83
- molecule: "CN(C)c1ccc(C2(CNC3=NS(=O)(=O)N=C3Nc3ccc(CC(C)(C)NC[C@H](O)COc4ccc(OCc5ccccc5)cc4)cc3)CCCC2)cc1 [7 (step E)]"
  IA(β3): 0.56
- molecule: "CC(Cc1ccc(NC2=NS(=O)(=O)N=C2NCC2(c3ccccc3)CCCC2)cc1)NC[C@H](O)COc1ccc(O)cc1 (stereo partly shown)"
  IA(β3): 1.0
- molecule: "CC(Cc1ccc(NC2=NS(=O)(=O)N=C2NCCc2ccc(F)cc2)cc1)NC[C@H](O)COc1ccc(O)cc1 (stereo partly shown)"
  IA(β3): 0.87
- molecule: "CCCCCCCCNc1c(Nc2ccc(CC(C)NC[C@H](O)c3cccc(Cl)c3)cc2)c(=O)c1=O (stereo partly shown)"
  IA(β3): 0.71
